- system tested: human GR (Homo sapiens, UniProt P04150)
- Construct: U937 cells contain an endogenous glucocorticoid receptor (GR); endogenous in cells; host or cells: U937 cells stably transfected with the TNF-alpha promoter/beta-lactamase reporter
- assay name: Transrepression Assay (GITAR), TNFα-β-lactamase reporter gene in U937 cells
- Format: cell-based
- experimental parameters: GITAR Emax minus GRAMMER Emax; Table 1
readout kind: GITAR Greater than by GRAMMER % SEP

>  <smi>
CCCN(CC1CC1)C(=O)[C@H]1CCC2=Cc3c(cnn3-c3ccc(F)cc3)C[C@@]21C

>  <recorded result>
24.2%

$$$$
>  <smi>
CCNC(=O)CN(CCc1ccccc1)C(=O)[C@H]1CCC2=Cc3c(cnn3-c3ccc(F)cc3)C[C@@]21C

>  <recorded result>
5.3%

$$$$
>  <smi>
COc1ccccc1CN(C)C(=O)[C@H]1CCC2=Cc3c(cnn3-c3ccc(F)cc3)C[C@@]21C

>  <recorded result>
16.9%

$$$$

----------
As shown below, each of these molecules has a reported pEC50 value.
- system tested: human GR (Homo sapiens)
- Construct: U937 cells contain an endogenous glucocorticoid receptor (GR); endogenous in cells; host or cells: U937 cells stably transfected with the TNF-alpha promoter/beta-lactamase reporter
- Sequence (P04150 1-777): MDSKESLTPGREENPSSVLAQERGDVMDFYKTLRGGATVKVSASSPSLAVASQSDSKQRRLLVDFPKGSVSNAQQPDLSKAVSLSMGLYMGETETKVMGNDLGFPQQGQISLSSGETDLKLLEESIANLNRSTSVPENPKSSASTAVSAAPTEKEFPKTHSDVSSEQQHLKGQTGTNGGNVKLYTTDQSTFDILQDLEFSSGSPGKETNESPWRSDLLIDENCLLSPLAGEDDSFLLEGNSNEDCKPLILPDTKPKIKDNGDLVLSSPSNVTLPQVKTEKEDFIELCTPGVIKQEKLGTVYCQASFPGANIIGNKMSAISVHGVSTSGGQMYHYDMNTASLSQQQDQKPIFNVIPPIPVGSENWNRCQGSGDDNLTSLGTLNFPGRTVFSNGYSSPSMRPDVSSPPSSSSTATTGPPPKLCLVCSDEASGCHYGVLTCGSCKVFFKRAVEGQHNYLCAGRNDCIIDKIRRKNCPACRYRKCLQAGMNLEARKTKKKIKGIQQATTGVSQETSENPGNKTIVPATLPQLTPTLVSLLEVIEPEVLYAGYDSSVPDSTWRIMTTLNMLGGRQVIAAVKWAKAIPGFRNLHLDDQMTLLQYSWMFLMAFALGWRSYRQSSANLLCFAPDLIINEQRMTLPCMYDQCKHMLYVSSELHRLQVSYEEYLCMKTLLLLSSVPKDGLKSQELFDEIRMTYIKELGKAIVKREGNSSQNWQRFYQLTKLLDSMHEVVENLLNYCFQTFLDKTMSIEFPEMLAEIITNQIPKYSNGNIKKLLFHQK
- assay name: Transrepression Assay (GITAR), TNFα-β-lactamase reporter gene in U937 cells
- Assay type: cell-based
- experimental parameters: inflection point; U937 cells; Table 1; read-out: Transrepression U937 Cells GITAR IP
pEC50: −log10 of the molar value.

>  <molecule>
CCN(CC(O)C(F)(F)F)C(=O)[C@H]1CCC2=Cc3c(cnn3-c3ccc(F)cc3)C[C@@]21C (stereo partly drawn) [Compound 71]

>  <pEC50>
7.07

$$$$
>  <molecule>
CN(Cc1cccc(C(F)(F)F)c1)C(=O)[C@H]1CCC2=Cc3c(cnn3-c3ccc(F)cc3)C[C@@]21C

>  <pEC50>
7.06

$$$$
>  <molecule>
C[C@]12Cc3cnn(-c4ccc(F)cc4)c3C=C1CC[C@@H]2C(=O)N(CCc1ccccc1)Cc1ccccc1

>  <pEC50>
6.84

$$$$
